# Test system: MCF7
# PROTOCOL_TEXT: Cytotoxicity against human MCF7 cells after 24 hrs by MTT assay
# Type: functional, cell-based
# CONDITION_NOTES: Homo sapiens, MCF7, 24 h; read-out: IC50
molecules and their reported IC50
ASSAY_READOUT: IC50 (µM)

> print(dat)
                                smiles.input  assay.readout  units.label  test.value
 1  Cc1cc(O)c(C(=O)/C=C/c2ccccc2)c(-c2ccc(Cl)cc2)c1C(=O)/C=C/c1ccccc1           IC50           µM          15
 2  Cc1cc(O)c(C(=O)/C=C/c2ccc(OCc3ccccc3)cc2)c(-c2ccc(Br)cc2)c1C(=O)/C=C/c1ccc(OCc2ccccc2)cc1           IC50           µM          20
 3  CC/C(=C(\c1ccccc1)c1ccc(OCCN(C)C)cc1)c1ccccc1           IC50           µM         8.9
 4  Cc1cc(O)c(C(=O)/C=C/c2ccccc2)c(-c2ccc(Br)cc2)c1C(=O)/C=C/c1ccccc1           IC50           µM          10
 5  Cc1cc(O)c(C(=O)/C=C/c2ccc(F)cc2)c(-c2ccc(Br)cc2)c1C(=O)/C=C/c1ccc(F)cc1           IC50           µM          20
 6  Cc1cc(O)c(C(=O)/C=C/c2cccc3ccccc23)c(-c2ccc(Cl)cc2)c1C(=O)/C=C/c1cccc2ccccc12           IC50           µM          30
 7  Cc1cc(O)c(C(=O)/C=C/c2ccc(Cl)cc2)c(-c2ccccc2)c1C(=O)/C=C/c1ccc(Cl)cc1           IC50           µM          10
 8  Cc1cc(O)c(C(=O)/C=C/c2cccc(Cl)c2)c(-c2ccccc2)c1C(=O)/C=C/c1cccc(Cl)c1           IC50           µM          20
 9  Cc1cc(O)c(C(=O)/C=C/c2ccc3ccccc3c2)c(-c2ccccc2)c1C(=O)/C=C/c1ccc2ccccc2c1           IC50           µM        31.5
10  Cc1cc(O)c(C(=O)/C=C/c2ccccc2Cl)c(-c2ccc(Cl)cc2)c1C(=O)/C=C/c1ccccc1Cl           IC50           µM          30
11  Cc1cc(O)c(C(=O)/C=C/c2ccccc2)c(-c2ccccc2)c1C(=O)/C=C/c1ccccc1           IC50           µM          10
12  Cc1cc(O)c(C(=O)/C=C/c2ccc(F)cc2)c(-c2ccccc2)c1C(=O)/C=C/c1ccc(F)cc1           IC50           µM          20
13  Cc1cc(O)c(C(=O)/C=C/c2cccc3ccccc23)c(-c2ccccc2)c1C(=O)/C=C/c1cccc2ccccc12           IC50           µM          30
14  Cc1cc(O)c(C(=O)/C=C/c2ccc(Cl)cc2)c(-c2ccc(Cl)cc2)c1C(=O)/C=C/c1ccc(Cl)cc1           IC50           µM          28
15  Cc1cc(O)c(C(=O)/C=C/c2ccc(Br)cc2)c(-c2ccccc2)c1C(=O)/C=C/c1ccc(Br)cc1           IC50           µM          10
16  Cc1cc(O)c(C(=O)/C=C/c2ccc(OCc3ccccc3)cc2)c(-c2ccc(OCc3ccccc3)cc2)c1C(=O)/C=C/c1ccc(OCc2ccccc2)cc1           IC50           µM          26
